I'd be grateful if you could share measured pEC50 for these entries.
Test system: chikungunya virus (CHIKV)
assay.details: Chikungunya virus-cell based antiviral assay (inhibition of virus-induced cell death, MTS readout)
cond: Chikungunya virus, Vero, read-out: EC50 (50% effective concentration, inhibits CHIKV-induced cell death by 50%)
Give bare numbers, as −log10 of the molar value.

Exam item: Query the reported pEC50 for chikungunya virus (CHIKV); item: C=C(C)C12OC3(c4ccccc4)OC1C1C4OC4(CO)C(O)C4(O)C(O)C(C)=CC4C1(O3)C(C)C2OC(=O)C(C)CCCCCCCC (stereo not drawn)
Marked response: 6.22

Exam item: Identify the measured pEC50 of CC1CCCCCCC(C)C(=O)OC2C(=CCl)C=C3C2(O)C(O)C2(CO)OC2C2C4OC5(c6ccccc6)OC(C(C)C32O5)C4(O)C(O)(CO)C1 (stereo not drawn) [Compound 2, Trigocherriolide E] for chikungunya virus (CHIKV).
Marked response: 6.15

Next:
Exam item: Find pEC50 (chikungunya virus (CHIKV)) for the entry CCN(CC)CCCC(C)Nc1ccnc2cc(Cl)ccc12 (stereo not drawn) [Chloroquine, chloroquine, reference compound]
Marked response: 5.00

Cited source for all entries: paper PMC6270878
